Reference source for all entries: PubChem BioAssay AID194

Tested on: BDF1 mice, B16 melanoma s.c., survival/tumor T/C
PROTOCOL: NCI In Vivo Anticancer Drug Screen. Data for tumor model B16 Melanoma (subcutaneous) in B6D2F1 (BDF1) mice
MEASUREMENT SETUP: endpoint: median survival time; dose: 100.0 mg/kg/injection; schedule: Q01DX009 (ip); vehicle: saline; higher = longer survival
Inconclusive results are not listed.
READOUT LABEL: T/C

NCCc1ccc(O)c(O)c1 : 107 % of control
CC1(C)N=C(N)N=C(N)N1c1ccc(OCCCNC(=O)Nc2cccc(S(=O)(=O)F)c2)c(Cl)c1 : 91 % of control

q: Requested field: T/C. Item: O=C1OC(C(O)CO)C(O)=C1O (stereo not given)
a: 103 % of control

q: Requested field: T/C. Item: C[C@]12C=CC(=O)C=C1CC[C@@H]1[C@@H]2C(=O)C[C@@]2(C)[C@H]1CC[C@]2(O)C(=O)CO
a: 100 % of control

q: Requested field: T/C. Item: CC1(C)N=C(N)N=C(N)N1c1ccc(OCC(=O)N2CCOCC2)c(Cl)c1
a: 114 % of control
